The following compounds are listed with their measured Emax values.
Target: α1β2γ2 GABA receptors (α1β2γ2-CHO-TRex stable cell strain) (Homo sapiens, UniProt P14867+P47870)
Construct: expressed in transfected cells
Sequence (P14867 28-456): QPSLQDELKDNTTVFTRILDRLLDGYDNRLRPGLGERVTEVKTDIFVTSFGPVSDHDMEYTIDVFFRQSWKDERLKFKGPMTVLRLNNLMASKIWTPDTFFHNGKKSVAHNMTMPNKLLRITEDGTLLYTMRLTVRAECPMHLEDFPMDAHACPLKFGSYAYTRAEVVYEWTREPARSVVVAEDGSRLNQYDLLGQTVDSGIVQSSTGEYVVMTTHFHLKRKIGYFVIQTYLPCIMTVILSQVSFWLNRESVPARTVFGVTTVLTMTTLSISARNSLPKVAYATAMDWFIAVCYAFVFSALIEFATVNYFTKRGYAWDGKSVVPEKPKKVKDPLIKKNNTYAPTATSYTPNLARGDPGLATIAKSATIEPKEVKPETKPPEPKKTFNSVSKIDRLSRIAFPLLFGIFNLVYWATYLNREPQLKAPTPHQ
Sequence (P47870 25-512 limits assumed): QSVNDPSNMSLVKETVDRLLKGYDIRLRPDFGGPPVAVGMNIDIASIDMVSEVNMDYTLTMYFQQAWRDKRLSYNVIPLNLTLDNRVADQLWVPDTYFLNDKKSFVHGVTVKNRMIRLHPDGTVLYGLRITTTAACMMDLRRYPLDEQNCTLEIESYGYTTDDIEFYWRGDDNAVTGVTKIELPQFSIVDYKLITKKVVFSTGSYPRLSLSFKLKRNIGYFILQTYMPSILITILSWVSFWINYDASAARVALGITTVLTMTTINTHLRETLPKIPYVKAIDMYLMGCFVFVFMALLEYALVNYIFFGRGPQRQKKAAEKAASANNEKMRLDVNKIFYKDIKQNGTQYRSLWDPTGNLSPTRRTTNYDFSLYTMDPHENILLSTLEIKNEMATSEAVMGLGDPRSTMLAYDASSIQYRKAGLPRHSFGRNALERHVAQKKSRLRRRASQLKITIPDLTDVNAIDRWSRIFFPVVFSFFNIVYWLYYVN
Sequence (P18507 40-475 partner): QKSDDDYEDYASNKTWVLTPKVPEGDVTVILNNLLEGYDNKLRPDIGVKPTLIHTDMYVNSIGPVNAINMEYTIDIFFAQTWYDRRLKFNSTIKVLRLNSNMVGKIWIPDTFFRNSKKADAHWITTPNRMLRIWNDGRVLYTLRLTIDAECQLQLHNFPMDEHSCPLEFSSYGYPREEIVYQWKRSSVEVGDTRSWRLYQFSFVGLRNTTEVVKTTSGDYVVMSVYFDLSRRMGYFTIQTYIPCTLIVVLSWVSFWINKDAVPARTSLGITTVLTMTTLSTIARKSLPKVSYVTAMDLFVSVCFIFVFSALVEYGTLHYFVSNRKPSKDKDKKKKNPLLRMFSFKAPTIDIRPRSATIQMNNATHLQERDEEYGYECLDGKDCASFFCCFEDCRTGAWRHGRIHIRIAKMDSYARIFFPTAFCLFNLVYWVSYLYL
Assay: Whole-cell patch clamp, intrasynaptic functional activity (positive allosteric regulation of GABA-induced current)
Format: cell-based
Settings: patch clamp -60 mV, GABA at EC10-20, α1β2γ2-CHO-TRex cells

The compound identified as "C[C@@]1(O)CC[C@H]2[C@H](CC[C@@H]3[C@@H]2CC[C@]2(C)[C@@H](C(=O)Cn4cnn(-c5ccccc5F)c4=O)CC[C@@H]32)C1" registered its Emax at 710%

Origin of measurements: patent US20250368678A1
